- Subject of test: Transcriptional activator protein TraR (Agrobacterium tumefaciens)
- Measurement description: Antagonist activity at Agrobacterium tumefaciens WCF (pCF372) TraR assessed as inhibition of […]-induced quorum sensing activation at 10 uM after 8 hrs by beta-galactosidase reporter gene assay relative to untreated control
- Assay type: functional
Entry flag: class 1 if inhibition reaches 30%; class 0 if it does not.

{"columns": ["Compound", "Subject of test", "Class assignment"],
 "data": [
  ["CCCCCCC(=O)N[C@H]1CCSC1=O", "Transcriptional activator protein TraR (Agrobacterium tumefaciens)", "class 1"]
]}

Task: Reported inhibition reaches at least 30% for O=C(Cc1ccccc1)NC1CCSC1=O (racemic) ?
Output: class 0

Task: Reported inhibition reaches at least 30% for O=C(Cc1cccc([N+](=O)[O-])c1)N[C@H]1CCSC1=O ?
Output: class 1

Task: Reported inhibition reaches at least 30% for CCCCCCCCCC(=O)CC(=O)N[C@H]1CCSC1=O ?
Output: class 1

Task: Reported inhibition reaches at least 30% for CCCCCCCC(=O)N[C@H]1CCSC1=O ?
Output: class 1

Task: Reported inhibition reaches at least 30% for O=C(Cc1ccc(Br)cc1)NC1CCSC1=O (racemic) ?
Output: class 0

Measured values drawn from ChEMBL document CHEMBL1811864 for this set.
